test system: SW-620 colon; experiment: NCI tumour cell line growth inhibition, 48 h
measuredAttribute: TGI

See these solved cases before continuing.
[
  {
    "compound": "CCc1c(C)c(C#N)c(=S)n(C2OC(COC(C)=O)C(OC(C)=O)C(OC(C)=O)C2OC(C)=O)c1-c1ccccc1 (stereo not drawn)",
    "system": "SW-620 colon",
    "TGI": "> 100 µM"
  },
  {
    "compound": "COC(=O)[C@]1(NC(=O)c2ccccc2)C[C@H]1C=O",
    "system": "SW-620 colon",
    "TGI": "> 100 µM"
  }
]

Query compound follows.
Field request: TGI | item: Cc1ccc2nc(N/N=C/c3sccc3C)cc(C)c2c1
> 100 µM
